# System: A549
# EXPERIMENTAL DETAILS: NCI tumour cell line growth inhibition, 48 h
Calls of active or inactive are those of the source. No stated cut-off is given here; in the data, active = GI50 up to about 1.1 µM and inactive = higher.
READOUT KIND: GI50

>>> df
                                    compound          result_value
 0  O=C1C2=Cc3ccccc3OC2(O)Oc2cc(O)ccc21 (stereo unspecified)   > 100 µM (inactive)
 1  COc1ccc2c(c1)/C(=C\c1c(Cl)[nH]c3cc(C)c(OC)cc13)C(=O)N2    1.19 µM (inactive)
 2  O=c1c2c3c(sc2nc(CN2CCNCC2)n1-c1ccccc1)CCCC3   > 100 µM (inactive)
 3  CC1COS(=O)N1c1ccccc1 (stereo unspecified)   > 100 µM (inactive)
 4               CSc1nc(C#N)c(/N=C\N(C)C)n1C   > 100 µM (inactive)
 5  COC(=O)C(Cc1ccccc1)NC(=O)c1ccc(CNC(=S)NCc2cccc(CNC(=S)NCc3ccccc3)c2)cc1 (stereo unspecified)  > 34.5 µM (inactive)
 6  O=[N+]([O-])c1ccc(OP(=O)(O)OCC2OC(CP(=O)(O)O)C(O)C2O)cc1 (stereo unspecified)   > 100 µM (inactive)
 7  C=C1CC(COc2ccc3c(C)cc(=O)oc3c2)(c2ccccc2)OC1=O (stereo unspecified)    11.5 µM (inactive)
 8  CC(C)=C=CC(C)(C)NS(=O)(=O)NC(C)(C)C=C=C(C)C    42.1 µM (inactive)
 9           Cn1cnc([N+](=O)[O-])c1Sc1nnnn1C    99.5 µM (inactive)
10  Cc1cc(O)c(C(c2ccncc2)c2c(O)cc(C)[nH]c2=O)c(=O)[nH]1   > 100 µM (inactive)

----------
Below, each entry is listed with its recorded GI50.
# System: SK-MEL-28
# EXPERIMENTAL DETAILS: NCI tumour cell line growth inhibition, 48 h
Active and inactive are the calls of the source. Cut-off read from the data, not from the text of the source: active = GI50 up to about 1.1 µM and inactive = higher.

COMPOUND	GI50
OC(CC(O)(C(F)(F)F)C(F)(F)F)C(O)c1ccco1 (configuration not stated)	> 10 µM (inactive)
S=C1c2cc(Cl)ccc2N=C(NC2CCCC2)C2CSCN12 (configuration not stated)	> 100 µM (inactive)
COc1ccc(NC(=O)CC/C(CC(=O)c2ccccc2Cl)=N\Nc2nnc(C)n2N)cc1	> 100 µM (inactive)
OC(CC(CC(O)(C(F)(F)F)C(F)(F)F)=NN=C(CC(O)(C(F)(F)F)C(F)(F)F)CC(O)(C(F)(F)F)C(F)(F)F)(C(F)(F)F)C(F)(F)F	> 10 µM (inactive)
COc1cc2c(cc1OC)C1CCc3ccccc3CN1CC2 (configuration not stated)	> 100 µM (inactive)
Cc1c2cc(Cl)ccc2n2c(=O)c3ccccc3[nH]c(=O)c12	> 100 µM (inactive)
CC(=O)OCC1OC(n2c(-c3ccc(Cl)cc3)cc(-c3ccccc3)c(C#N)c2=S)C(OC(C)=O)C(OC(C)=O)C1OC(C)=O (configuration not stated)	6.5 µM (inactive)
O=c1[nH]cc(COCC(O)CO)c(=O)[nH]1 (configuration not stated)	> 100 µM (inactive)
O=c1c(-c2ccccc2)c(SCCCN2CCCCC2)n(-c2ccccc2)c(=S)n1-c1ccccc1	16.9 µM (inactive)
CCn1c2ccc(C(=O)CCCN3CCCCC3)cc2c2cc(C(=O)CCCN3CCCCC3)ccc21	19.3 µM (inactive)
CC(=O)OC(C)C1C2=C(C(=O)CC1(C)O)C(=O)c1c(ccc(-c3ccc4c(c3O)C(=O)C3=C(C4=O)C(C(C)OC(C)=O)C(C)(O)CC3=O)c1O)C2=O (configuration not stated)	2.12 µM (inactive)
COc1ccc2c(Cl)cc(NC(=S)Nc3ccccc3)nc2c1	33.6 µM (inactive)

----------
# System: SK-MEL-2
# EXPERIMENTAL DETAILS: NCI tumour cell line growth inhibition, 48 h
Calls of active or inactive are those of the source. Cut-off read from the data, not from the text of the source: active = GI50 up to about 1.1 µM and inactive = higher.
Outcomes: active, inactive

>>> print(df.to_string())
                                    molecule  tested_on  answer_label
 0           CCOP(=O)(/C=C\n1ccc(N)nc1=O)OCC   SK-MEL-2      inactive
 1  O=C(CC(C(=O)c1cccs1)c1cccs1)c1ccccc1Cl (centres undefined)   SK-MEL-2      inactive
 2  [N-]=[N+]=NC1C(O)C(CO)OC1n1ccc(N)nc1=O (centres undefined)   SK-MEL-2      inactive
 3  Cc1ccc(S(=O)(=O)SC/C=C\CSS(=O)(=O)c2ccc(C)cc2)cc1   SK-MEL-2      inactive
 4  CC1(C)CC2C=C(C=O)C3(C=O)CC3(C)C2C1 (centres undefined)   SK-MEL-2      inactive
 5  COc1c(OC(C)=O)c(OC(C)=O)cc2c1-c1ccc(OC)c(=O)cc1C(NC(C)=O)CC2 (centres undefined)   SK-MEL-2        active
 6  C/C(CN1C(=O)c2ccccc2C1=O)=N\NS(=O)(=O)c1cccc(C(=O)O)c1   SK-MEL-2      inactive
 7  C1=CC2(C=CC13O[C@H](C1CCCCC1)[C@@H](C1CCCCC1)O3)O[C@H](C1CCCCC1)[C@@H](C1CCCCC1)O2   SK-MEL-2      inactive
 8           Cc1ccc(C(=O)C#Cc2cnc(O)nc2O)cc1   SK-MEL-2      inactive
 9  O=CC(O)C(O)C(O)C1CNC(=S)O1 (centres undefined)   SK-MEL-2      inactive
10  CCCC1(NC(=O)C(F)(F)F)CC(OC)OC2COC(c3ccccc3)OC21 (centres undefined)   SK-MEL-2      inactive
11  CCCCCCCCCCCCCCCCCCOCC(COCCOCC[N+]1(CCCCCC(=O)[O-])CCCC1)Oc1ncccn1 (centres undefined)   SK-MEL-2      inactive
12    O=C(O/N=C1/CCCC/C1=C\c1ccccc1)c1ccccc1   SK-MEL-2      inactive
13      CCOC(=O)c1c(NC(=O)c2ccccc2)sc2c1CCC2   SK-MEL-2      inactive
14  CC1=NN(C(=O)Nc2ccccc2)C(=O)C2CCC(=O)N12 (centres undefined)   SK-MEL-2      inactive
15            O=C(O)CSc1nnc(-c2ccccc2O)[nH]1   SK-MEL-2      inactive
16   CN(C(=O)c1ccco1)C(=S)N1CCN(c2ccccc2)CC1   SK-MEL-2      inactive
17                     CCCCC(CCCC)=NNC(=S)SC   SK-MEL-2      inactive
18    O=C(/C=C/c1ccc(O)c(O)c1)c1cc(O)cc(O)c1   SK-MEL-2      inactive
19  CCOC(=O)c1c2ccc(/C=C/c3ccccc3)ccc-2c(C(=O)OCC)c1N   SK-MEL-2      inactive
20               CSc1nc(C#N)c(/N=C\N(C)C)n1C   SK-MEL-2      inactive
21   c1ccc(CSC(SCc2ccccc2)c2cccc3ccccc23)cc1   SK-MEL-2      inactive
22  CC(C)(C)[Si](C)(C)OCc1cccc(OCCOc2cccc(CO[Si](C)(C)C(C)(C)C)c2[N+](=O)[O-])c1[N+](=O)[O-]   SK-MEL-2      inactive
23            S=C(CSc1ccccc1)Nc1cccc2ccccc12   SK-MEL-2      inactive

----------
# System: UACC-257
# EXPERIMENTAL DETAILS: NCI tumour cell line growth inhibition, 48 h
Calls of active or inactive are those of the source. Cut-off read from the data, not from the text of the source: active = GI50 up to about 1.1 µM and inactive = higher. Residues, ends and D or L forms follow the SMILES beside them.
Below, each entry is listed with its recorded GI50.
READOUT KIND: GI50

COMPOUND	READOUT KIND	RESULT VALUE
ClCCC[Si]12OCCN(CCO1)CCO2	GI50	> 100 µM (inactive)
CC(=O)NC(CO)C(=O)NC(Cc1ccc(O)cc1)C(=O)NCC(N)=O (stereo not drawn) (Ac-Ser-Tyr-Gly-NH2; configuration not given here)	GI50	> 100 µM (inactive)
CC1=CC(=C(c2ccc(N)c(C)c2)c2ccc(N)c(C)c2)C=CC1=N	GI50	3 µM (inactive)
CC(C)OP(=O)(OC(C)C)C(C)(C)O	GI50	> 100 µM (inactive)
NC(CCCCNC(=O)CNC(=O)OCc1ccccc1)C(=O)NC(CCCCNC(=O)CNC(=O)OCc1ccccc1)C(=O)NC(CCCCNC(=O)CNC(=O)OCc1ccccc1)C(=O)NC(CCCCNC(=O)CNC(=O)OCc1ccccc1)C(=O)NC(CCCCNC(=O)CNC(=O)OCc1ccccc1)C(=O)NC(CCCCNC(=O)CNC(=O)OCc1ccccc1)C(=O)O (configuration not stated)	GI50	> 75 µM (inactive)
CC(=O)OC1C(C)OC(OC2C[C@](O)(C(C)=O)Cc3c(O)c4c(c(O)c32)C(=O)c2ccccc2C4=O)C(F)C1OC(C)=O (some centres not stated)	GI50	1.8 µM (inactive)
COc1cc(NCc2ccc3n2-c2ccccc2OC3)cc(OC)c1OC	GI50	20.1 µM (inactive)
Cc1cn(Cc2cnnn2CC2OC(n3cc(C)c(=O)[nH]c3=O)CC2O)c(=O)[nH]c1=O (configuration not stated)	GI50	> 100 µM (inactive)
COC(=O)[C@@H]1CSC(=S)N1C(=O)C[C@H]1CC=CC[C@H]1CC(=O)Sc1ccccc1	GI50	18.5 µM (inactive)
CC(C)C12CCC3(CCC4C(C)(C(=O)O)CCCC4(C)C3C1)C(CN)C2 (configuration not stated)	GI50	40.1 µM (inactive)
C=CCN1C(=O)/C(=C/c2cccs2)N=C1SC/C=C/C	GI50	40.3 µM (inactive)
Cc1c2ccncc2cc2c1[nH]c1ccccc12	GI50	5.55 µM (inactive)
Cc1cc(N(CCCCl)CCCCl)ccc1/C=N/c1cccc(Cl)c1	GI50	0.428 µM (active)
CCC12C=CCN(CCc3c([nH]c4ccccc34)/C=C\1)C2 (configuration not stated)	GI50	> 100 µM (inactive)
CC(=O)O[C@@H]1C2C(=O)OC(=O)C2C2CCC[C@]23O[C@H]13 (some centres not stated)	GI50	> 100 µM (inactive)
COc1nc2[nH]ccc2c(=O)[nH]1	GI50	> 100 µM (inactive)
O=C1/C(=N/O)Cc2c(Br)ccc(Br)c21	GI50	42.2 µM (inactive)
